# testProtocol: GST activity toward herbicide metolachlor (HPLC-based assay)
# Type: biochemical
# protocolConditions: recombinant wheat GST expressed in E. coli, affinity purified; ± standard error
metric: GST activity toward metolachlor

Data point: ICR: recombinant safener-inducible type III wheat GST clone, SEQ ID No. 15, amino acid SEQ ID No. 16 (protein, Triticum aestivum L.) MAGDGELKLLGVWTSPFVIRVRVVLNLKSLPYEYVEESLGSKSALLLGSNPVHQSVPVLLHGGRPVNESQVIVQYIDEVWAGAGPSVLPADPYERATARFWAAYVDDKVGSAWTGMLFSCKTEEERAEAVSRAVAALETLEGAFAECSKGKAFFGGDAIGFVDVVLGGYLGWFGAIDKIIGRRLIDPARTPLLARWEERFRAADAAKGVVPDDADKMLEFLPTVLAWIAGKAK ; GST activity toward metolachlor = 0.000 ± 0.000 nkat.mg^−1
